EXPERIMENTAL_PROTOCOL: Evaluation of conversion rate to active form in buffer solution (Experimental Example 1)
Format: physicochemical
CONDITION_SUMMARY: pH6.0, 0.5 hr
EXPERIMENTAL_READOUT: Residual rate (%)
Please respond with the number in % and leave the unit unwritten.

Would you please look over these solved cases?
CNC(=O)O[C@@H]1CN(C)CC[C@@H]1c1c(O)cc(O)c2c(=O)cc(-c3ccccc3Cl)oc12 [Comparative Example 5, reference compound] ... 94.0
CNC(=O)Oc1cc(O)c2c(=O)cc(-c3ccccc3Cl)oc2c1[C@H]1CCN(C)C[C@H]1O [Comparative Example 2, reference compound] ... 2.5

Enquiry: Given CN1CC[C@H](c2c(O)cc(O)c3c(=O)cc(-c4ccccc4Cl)oc23)[C@H](OC(=O)CN)C1 [Comparative Example 8, reference compound] , state its recorded Residual rate.
Return: 72.6

Enquiry: Given CCNC(=O)O[C@@H]1CN(C)CC[C@@H]1c1c(O)cc(O)c2c(=O)cc(-c3ccccc3Cl)oc12 [Comparative Example 4, reference compound] , state its recorded Residual rate.
Return: 97.7

Enquiry: Given C[C@H](N)C(=O)O[C@@H]1CN(C)CC[C@@H]1c1c(O)cc(O)c2c(=O)cc(-c3ccccc3Cl)oc12 [Comparative Example 7, reference compound] , state its recorded Residual rate.
Return: 73.9

====

EXPERIMENTAL_PROTOCOL: Evaluation of conversion rate to active form in buffer solution (Experimental Example 1)
Format: physicochemical
CONDITION_SUMMARY: pH7.4, 2 hr
EXPERIMENTAL_READOUT: Production rate of Alvocidib
Your answer should be a number followed by the unit of measure.

Enquiry: Given CN1CC[C@H](c2c(O)cc(O)c3c(=O)cc(-c4ccccc4Cl)oc23)[C@H](OC(=O)[C@@H](N)CO)C1 [Comparative Example 9, reference compound] , state its recorded Production rate of Alvocidib.
Return: 44.0%

Enquiry: Given CN1CC[C@H](c2c(OC(=O)N(C)CCN)cc(O)c3c(=O)cc(-c4ccccc4Cl)oc23)[C@H](O)C1 [Comparative Example 13, reference compound] , state its recorded Production rate of Alvocidib.
Return: 91.4%

Enquiry: Given CCC(=O)O[C@@H]1CN(C)CC[C@@H]1c1c(O)cc(O)c2c(=O)cc(-c3ccccc3Cl)oc12 , state its recorded Production rate of Alvocidib.
Return: 4.7%

Enquiry: Given CCOC(=O)O[C@@H]1CN(C)CC[C@@H]1c1c(O)cc(O)c2c(=O)cc(-c3ccccc3Cl)oc12 [Comparative Example 3, reference compound] , state its recorded Production rate of Alvocidib.
Return: 1.4%

Enquiry: Given CNCCN(C)C(=O)Oc1cc(O)c2c(=O)cc(-c3ccccc3Cl)oc2c1[C@H]1CCN(C)C[C@H]1O [Comparative Example 14, reference compound] , state its recorded Production rate of Alvocidib.
Return: 97.2%

Enquiry: Given CNC(=O)Oc1cc(O)c2c(=O)cc(-c3ccccc3Cl)oc2c1[C@H]1CCN(C)C[C@H]1O [Comparative Example 2, reference compound] , state its recorded Production rate of Alvocidib.
Return: 98.5%

Enquiry: Given CCNC(=O)O[C@@H]1CN(C)CC[C@@H]1c1c(O)cc(O)c2c(=O)cc(-c3ccccc3Cl)oc12 [Comparative Example 4, reference compound] , state its recorded Production rate of Alvocidib.
Return: 1.8%

====

The entries below come with measured Residual rate values attached.
EXPERIMENTAL_PROTOCOL: Stability evaluation of solution formulation (Experimental Example 2)
Assay type: physicochemical
CONDITION_SUMMARY: solution formulation, pH5.0, 1 week
Please respond with the number in % and leave the unit unwritten.

CNCCN(C)C(=O)Oc1cc(O)c2c(=O)cc(-c3ccccc3Cl)oc2c1[C@H]1CCN(C)C[C@H]1O [Comparative Example 14, reference compound] ... 25.7

Enquiry: Given CCN(C[C@H]1CCCCN1)C(=O)Oc1cc(O)c2c(=O)cc(-c3ccccc3Cl)oc2c1[C@H]1CCN(C)C[C@H]1O , state its recorded Residual rate.
Return: 95.5

Enquiry: Given CCCN(C[C@H]1CCCCN1)C(=O)Oc1cc(O)c2c(=O)cc(-c3ccccc3Cl)oc2c1[C@H]1CCN(C)C[C@H]1O , state its recorded Residual rate.
Return: 97.0

Enquiry: Given CN1CC[C@H](c2c(OC(=O)N(C)CCN)cc(O)c3c(=O)cc(-c4ccccc4Cl)oc23)[C@H](O)C1 [Comparative Example 13, reference compound] , state its recorded Residual rate.
Return: 84.3

Enquiry: Given CCCN(C[C@@H]1CCCCN1)C(=O)Oc1cc(O)c2c(=O)cc(-c3ccccc3Cl)oc2c1[C@H]1CCN(C)C[C@H]1O , state its recorded Residual rate.
Return: 97.2

====

The entries below come with measured Production rate of Alvocidib values attached.
EXPERIMENTAL_PROTOCOL: Evaluation of conversion rate to active form in buffer solution (Experimental Example 1)
Type: physicochemical
CONDITION_SUMMARY: pH7.0, 0 hr, 37° C., 25 umol/L in buffer solution
Please respond with the number in % and leave the unit unwritten.

Would you please look over these solved cases?
CCCN(C[C@@H]1CCCCN1)C(=O)Oc1cc(O)c2c(=O)cc(-c3ccccc3Cl)oc2c1[C@H]1CCN(C)C[C@H]1O ... 0.0
CN1CC[C@H](c2c(OC(=O)N(CCC(F)(F)F)CC3CCCCN3)cc(O)c3c(=O)cc(-c4ccccc4Cl)oc23)[C@H](O)C1 (stereo partly drawn) ... 5.4

Please examine the following record next.
Enquiry: Given COCCN(CC1CCCCN1)C(=O)Oc1cc(O)c2c(=O)cc(-c3ccccc3Cl)oc2c1[C@H]1CCN(C)C[C@H]1O (stereo partly drawn) , state its recorded Production rate of Alvocidib.
Return: 1.7

====

EXPERIMENTAL_PROTOCOL: Stability evaluation of solution formulation (Experimental Example 2)
Type: physicochemical
CONDITION_SUMMARY: pH 3, 5° C., up to 4 weeks
Experimental: For Example 1, Example 2, Example 5, Example 6, Comparative Example 13 and Comparative Example 14, the attrition rate of the test compound and the conversion rate of the test compound to Alvocidib in a solution formulation were calculated by the following method. Example 1, Example 2, Example 5, Example 6, Comparative Example 13 and Comparative Example 14 were each added to buffer solutions adjusted to pH 3.0, 4.0 and 5.0, respectively, at a concentration of 0.1 mg/mL, and left at 5° C. […]
EXPERIMENTAL_READOUT: Stability / conversion to Alvocidib in solution formulation at pH 3

CN1CC[C@H](c2c(OC(=O)N(C)CCN)cc(O)c3c(=O)cc(-c4ccccc4Cl)oc23)[C@H](O)C1 [Comparative Example 13, reference compound] ... stable
CCN(C[C@@H]1CCCCN1)C(=O)Oc1cc(O)c2c(=O)cc(-c3ccccc3Cl)oc2c1[C@H]1CCN(C)C[C@H]1O [Example 1, ditrifluoroacetate] ... stable
CCCN(C[C@H]1CCCCN1)C(=O)Oc1cc(O)c2c(=O)cc(-c3ccccc3Cl)oc2c1[C@H]1CCN(C)C[C@H]1O [Example 6] ... stable

====

EXPERIMENTAL_PROTOCOL: Evaluation of conversion rate to active form in buffer solution (Experimental Example 1)
Type: physicochemical
CONDITION_SUMMARY: pH6.5, 2 hr
The entries below come with measured Residual rate values attached.
Your answer should be a number followed by the unit of measure.

Would you please look over these solved cases?
CCOC(=O)O[C@@H]1CN(C)CC[C@@H]1c1c(O)cc(O)c2c(=O)cc(-c3ccccc3Cl)oc12 [Comparative Example 3, reference compound] ... 89.9%
CNCCN(C)C(=O)Oc1cc(O)c2c(=O)cc(-c3ccccc3Cl)oc2c1[C@H]1CCN(C)C[C@H]1O [Comparative Example 14, reference compound] ... 0.0%
CNC(=O)Oc1cc(O)c2c(=O)cc(-c3ccccc3Cl)oc2c1[C@H]1CCN(C)C[C@H]1O [Comparative Example 2, reference compound] ... 0.0%
CCNC(=O)O[C@@H]1CN(C)CC[C@@H]1c1c(O)cc(O)c2c(=O)cc(-c3ccccc3Cl)oc12 [Comparative Example 4, reference compound] ... 97.8%
C[C@H](N)C(=O)O[C@@H]1CN(C)CC[C@@H]1c1c(O)cc(O)c2c(=O)cc(-c3ccccc3Cl)oc12 [Comparative Example 7, reference compound] ... 16.8%

Please examine the following record next.
Enquiry: Given CN1CC[C@H](c2c(OC(=O)N(C)CCN)cc(O)c3c(=O)cc(-c4ccccc4Cl)oc23)[C@H](O)C1 [Comparative Example 13, reference compound] , state its recorded Residual rate.
Return: 3.8%

====

EXPERIMENTAL_PROTOCOL: Stability evaluation of solution formulation (Experimental Example 2)
Assay type: physicochemical
CONDITION_SUMMARY: pH 3, 5° C., up to 4 weeks
Experimental: For Example 1, Example 2, Example 5, Example 6, Comparative Example 13 and Comparative Example 14, the attrition rate of the test compound and the conversion rate of the test compound to Alvocidib in a solution formulation were calculated by the following method. Example 1, Example 2, Example 5, Example 6, Comparative Example 13 and Comparative Example 14 were each added to buffer solutions adjusted to pH 3.0, 4.0 and 5.0, respectively, at a concentration of 0.1 mg/mL, and left at 5° C. […]
EXPERIMENTAL_READOUT: Stability / conversion to Alvocidib in solution formulation at pH 3

CCN(C[C@H]1CCCCN1)C(=O)Oc1cc(O)c2c(=O)cc(-c3ccccc3Cl)oc2c1[C@H]1CCN(C)C[C@H]1O ... stable
CCCN(C[C@@H]1CCCCN1)C(=O)Oc1cc(O)c2c(=O)cc(-c3ccccc3Cl)oc2c1[C@H]1CCN(C)C[C@H]1O ... stable

Origin of values: patent US12617779B2
